Origin of the recorded values: PubChem BioAssay (NCI)

# maps each entry to its TGI
# System: SN12C renal
# Experiment Notes: NCI tumour cell line growth inhibition, 48 h
*1 amine or outer side, *2 acyl side, *3 side chain or, on linkers, in order; H or OH if unused. Where a SMILES comes first, the peptide text is derived from it. Bridges are numbered along the chain shown (N, C = ends). [ ]: non-standard residue; d: D form. ξ: configuration not given here. X35 = CC[C@H](C)[C@@H](N[*:1])[C@@H](O)CC(=O)O[C@H](C(=O)[C@H](C)C(=O)[*:2])C(C)C; NMeY = CN[C@@H](Cc1ccc(O)cc1)C(=O)O; dNMeL = CN[C@H](CC(C)C)C(=O)O; ξΔPro = O=C(O)C1C=CCN1

O=C1c2ccccc2C(=O)c2nn(N=P(CP(=Nn3nc4c(n3)C(=O)c3ccccc3C4=O)(c3ccccc3)c3ccccc3)(c3ccccc3)c3ccccc3)nc21 ... > 100 µM
COc1cc2c(c(OC)c1)C(=O)O[C@H](C)CCCC/C=C/C2 ... 13.6 µM
C=CCc1ccccc1C1CC2(C(=O)OC)OC1C(C(=O)OC)=C2C(=O)OC (centres undefined) ... > 10 µM
O=[N+]([O-])c1ccc2c(c1)n1c(N3CCCC3)[n+]3ccccc3c1c1c3cccc[n+]3c(N3CCCC3)n21 ... > 100 µM
CC(C)(Cc1ccccc1)N1C(=O)N1C(C)(C)Cc1ccccc1 ... > 100 µM

Problem: // returns reported TGI for input CC[C@H](C)[C@H]1NC(=O)[C@@H](NC(=O)[C@@H](CC(C)C)N(C)C(=O)C2C=CCN2)[C@@H](C)OC(=O)[C@H](Cc2ccc(OC)cc2)N(C)C(=O)[C@@H]2CCCN2C(=O)[C@H](CC(C)C)NC(=O)[C@@H](C)C(=O)[C@H](C(C)C)OC(=O)C[C@@H]1O (some centres undefined) (H-[ξΔPro][dNMeL]T[X35]LP[NMeY](Me); ester 3-C)
Solution: > 50 µM

Problem: Value lookup for TGI; key = COc1cc(C2c3cc4c(cc3[C@@H](N(C)C)[C@H]3COC(=O)C23)OCO4)cc(OC)c1O (some centres undefined)
Solution: > 100 µM

Problem: What does the data say about its TGI? Entry: `CNCCNc1nc2ccccc2c2c(=O)c3cc(F)ccc3sc12`
Solution: 3.29 µM
